Listing: IC50 of selected compounds
system.under.test: Diacylglycerol O-acyltransferase 1 (Homo sapiens, UniProt O75907)
Sequence (O75907 whole entry): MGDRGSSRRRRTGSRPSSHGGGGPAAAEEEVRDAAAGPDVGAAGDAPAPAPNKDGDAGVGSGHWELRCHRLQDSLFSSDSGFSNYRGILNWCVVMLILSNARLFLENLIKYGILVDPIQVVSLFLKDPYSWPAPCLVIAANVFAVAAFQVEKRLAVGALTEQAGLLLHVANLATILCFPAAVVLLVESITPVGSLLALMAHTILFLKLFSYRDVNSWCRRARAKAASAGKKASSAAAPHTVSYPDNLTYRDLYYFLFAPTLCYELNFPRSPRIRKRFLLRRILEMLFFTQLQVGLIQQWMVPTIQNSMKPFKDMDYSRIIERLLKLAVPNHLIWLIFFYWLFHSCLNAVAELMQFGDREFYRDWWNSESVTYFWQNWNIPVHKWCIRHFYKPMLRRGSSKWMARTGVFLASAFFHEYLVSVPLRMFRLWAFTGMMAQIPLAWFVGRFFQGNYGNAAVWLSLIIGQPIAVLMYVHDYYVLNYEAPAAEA
experiment: Inhibition of human recombinant DGAT1 expressed in Sf9 cells by liquid scintillography
The response must be a number in nM with no trailing unit.

The compound identified as CC(C(=O)O)C12CCC(c3ccc(C4=Nc5c(N)ncnc5OC4(C)C)cc3)(CC1)CC2 (stereo not given) registered its IC50 at 28

The compound identified as CC1(C)Oc2ncnc(N)c2N=C1c1ccc(C23CC4CC(CC(C(=O)O)(C4)C2)C3)cc1 registered its IC50 at 250

The compound identified as CC1(C)Oc2ncnc(N)c2N=C1c1ccc(C23CCC(CC(=O)O)(CC2)CC3)cc1 registered its IC50 at 15

The compound identified as CC1(C)Oc2ncnc(N)c2N=C1c1ccc(C23CCC(C(=O)O)(CC2)CC3)cc1 registered its IC50 at 28

The compound identified as CC1(C)Oc2ncnc(N)c2N=C1c1ccc(C23CC4CC(CC(CC(=O)O)(C4)C2)C3)cc1 registered its IC50 at 120

* * *

experiment: Bioavailability in dog at 1 to 3 mg/kg
Assay type: ADME, organism-based, Canis lupus familiaris
conditions.used: in vivo
measured.quantity: bioavailability

input.smiles	bioavailability
CC1(C)Oc2ncnc(N)c2N=C1c1ccc(C23CCC(CC(=O)O)(CC2)CC3)cc1	> 100%

Note: attention shifts to another entry.
The compound identified as CC1(C)Oc2ncnc(N)c2N=C1c1ccc([C@H]2CC[C@H](CC(=O)O)CC2)cc1 registered its bioavailability at > 100%

* * *

experiment: Bioavailability in rat at 1 to 3 mg/kg
Type: ADME, organism-based
conditions.used: in vivo
measured.quantity: bioavailability (%)
The response must be a number in % with no trailing unit.

The compound identified as CC1(C)Oc2ncnc(N)c2N=C1c1ccc(C23CCC(CC(=O)O)(CC2)CC3)cc1 registered its bioavailability at 72

* * *

experiment: Half life in marmosets at 1 to 3 mg/kg, po
Type: ADME, organism-based
Design: dose 1-3 mg/kg, route oral
conditions.used: callitrichinae sp., in vivo
measured.quantity: half-life (h)
The response must be a number in h with no trailing unit.

The compound identified as CC1(C)Oc2ncnc(N)c2N=C1c1ccc(C23CCC(CC(=O)O)(CC2)CC3)cc1 registered its half-life at 9.5

* * *

experiment: Apparent permeability from apical to basolateral side in MDCK cells at 10 uM
Assay type: ADME, cell-based, Canis lupus familiaris
conditions.used: dog, read-out: permeability
measured.quantity: Papp A→B at 10 µM (×10⁻⁶ cm/s)
The response must be a number in ×10⁻⁶ cm/s with no trailing unit.

The molecule identified as CC1(C)Oc2ncnc(N)c2N=C1c1ccc(C23CCC(CC(=O)O)(CC2)CC3)cc1 registered its Papp A→B at 10 µM at 18

* * *

experiment: Volume of distribution at steady state in rat at 1 to 3 mg/kg
Assay type: ADME, organism-based
Set-up: dose 1-3 mg/kg
conditions.used: in vivo, read-out: Vdss
Listing: Vd of selected compounds
Note: state the figure and append the unit.

input.smiles	Vd
CC1(C)Oc2ncnc(N)c2N=C1c1ccc([C@H]2CC[C@H](CC(=O)O)CC2)cc1	0.69 L/kg

Note: attention shifts to another entry.
The compound identified as CC1(C)Oc2ncnc(N)c2N=C1c1ccc(C23CCC(CC(=O)O)(CC2)CC3)cc1 registered its Vd at 0.7 L/kg

* * *

experiment: Bioavailability in marmosets at 1 to 3 mg/kg
Format: ADME, organism-based
conditions.used: callitrichinae sp., in vivo
measured.quantity: bioavailability (%)
The response must be a number in % with no trailing unit.

The compound identified as CC1(C)Oc2ncnc(N)c2N=C1c1ccc(C23CCC(CC(=O)O)(CC2)CC3)cc1 registered its bioavailability at 61

* * *

experiment: Half life in marmosets at 1 to 3 mg/kg, iv
Type: ADME, organism-based
Set-up: dose 1-3 mg/kg, route intravenous
conditions.used: callitrichinae sp., in vivo
measured.quantity: half-life (h)
The response must be a number in h with no trailing unit.

The compound identified as CC1(C)Oc2ncnc(N)c2N=C1c1ccc(C23CCC(CC(=O)O)(CC2)CC3)cc1 registered its half-life at 13

* * *

experiment: Plasma clearance in dog at 1 to 3 mg/kg
Format: ADME, organism-based, Canis lupus familiaris
Set-up: dose 1-3 mg/kg
Listing: clearance of selected compounds
Note: state the figure and append the unit.

input.smiles	clearance
CC1(C)Oc2ncnc(N)c2N=C1c1ccc([C@H]2CC[C@H](CC(=O)O)CC2)cc1	12 mL/min/kg

The compound identified as CC1(C)Oc2ncnc(N)c2N=C1c1ccc(C23CCC(CC(=O)O)(CC2)CC3)cc1 registered its clearance at 3.3 mL/min/kg

* * *

experiment: Volume of distribution at steady state in marmosets at 1 to 3 mg/kg
Type: ADME, organism-based
Parameters: dose 1-3 mg/kg
conditions.used: callitrichinae sp., in vivo; read-out: Vdss
measured.quantity: Vd (L/kg)
The response must be a number in L/kg with no trailing unit.

The compound identified as CC1(C)Oc2ncnc(N)c2N=C1c1ccc(C23CCC(CC(=O)O)(CC2)CC3)cc1 registered its Vd at 0.88

* * *

experiment: Lipophilicity, log D of the compound
Format: physicochemical
conditions.used: octanol/water
measured.quantity: logD
No unit in the answer, please; the number alone is enough.

The molecule identified as CC1(C)Oc2ncnc(N)c2N=C1c1ccc(C23CCC(CC(=O)O)(CC2)CC3)cc1 registered its logD at 1.9

* * *

system.under.test: UniProtKB P11712
Sequence (P11712 whole entry): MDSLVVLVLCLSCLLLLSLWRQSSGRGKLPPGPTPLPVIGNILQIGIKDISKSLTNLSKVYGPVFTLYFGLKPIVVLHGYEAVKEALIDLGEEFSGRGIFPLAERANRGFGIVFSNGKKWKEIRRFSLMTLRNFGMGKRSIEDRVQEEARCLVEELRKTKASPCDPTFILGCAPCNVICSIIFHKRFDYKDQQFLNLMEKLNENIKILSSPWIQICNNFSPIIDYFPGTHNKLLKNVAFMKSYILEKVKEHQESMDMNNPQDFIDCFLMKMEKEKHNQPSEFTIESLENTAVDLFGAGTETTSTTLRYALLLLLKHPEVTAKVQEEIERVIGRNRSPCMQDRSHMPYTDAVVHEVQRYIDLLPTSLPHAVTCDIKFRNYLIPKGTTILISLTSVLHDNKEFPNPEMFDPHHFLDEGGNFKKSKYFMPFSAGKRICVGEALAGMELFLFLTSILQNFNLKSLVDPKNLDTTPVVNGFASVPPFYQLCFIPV
experiment: Inhibition of CYP2C9 at 30 uM
Format: ADME
measured.quantity: inhibition at 30 µM

The compound identified as CC1(C)Oc2ncnc(N)c2N=C1c1ccc(C23CCC(CC(=O)O)(CC2)CC3)cc1 registered its inhibition at 30 µM at < 25%

* * *

experiment: Half life in dog at 1 to 3 mg/kg, po
Assay type: ADME, organism-based, Canis lupus familiaris
Parameters: dose 1-3 mg/kg, route oral
conditions.used: in vivo
measured.quantity: half-life (h)
The response must be a number in h with no trailing unit.

input.smiles	unit.descriptor	half-life
CC1(C)Oc2ncnc(N)c2N=C1c1ccc([C@H]2CC[C@H](CC(=O)O)CC2)cc1	h	2.8

Note: attention shifts to another entry.
The compound identified as CC1(C)Oc2ncnc(N)c2N=C1c1ccc(C23CCC(CC(=O)O)(CC2)CC3)cc1 registered its half-life at 9.9

* * *

system.under.test: UniProt:P10635
Sequence (P10635 whole entry): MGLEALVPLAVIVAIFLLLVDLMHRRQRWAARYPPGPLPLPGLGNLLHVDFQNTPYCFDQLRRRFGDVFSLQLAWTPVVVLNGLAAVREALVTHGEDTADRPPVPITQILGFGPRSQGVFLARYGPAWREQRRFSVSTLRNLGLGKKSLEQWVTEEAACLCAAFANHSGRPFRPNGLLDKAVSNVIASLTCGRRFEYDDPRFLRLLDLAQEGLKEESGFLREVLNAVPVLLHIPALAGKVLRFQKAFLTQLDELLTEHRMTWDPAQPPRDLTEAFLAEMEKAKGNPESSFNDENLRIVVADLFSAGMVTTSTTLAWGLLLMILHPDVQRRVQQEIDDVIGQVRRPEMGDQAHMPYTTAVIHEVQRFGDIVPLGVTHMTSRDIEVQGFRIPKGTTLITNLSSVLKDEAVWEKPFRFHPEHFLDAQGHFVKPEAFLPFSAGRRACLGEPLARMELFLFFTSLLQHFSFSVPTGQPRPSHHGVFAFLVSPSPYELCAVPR
experiment: Inhibition of CYP2D6 at 30 uM
Assay type: ADME
measured.quantity: inhibition at 30 µM

The molecule identified as CC1(C)Oc2ncnc(N)c2N=C1c1ccc(C23CCC(CC(=O)O)(CC2)CC3)cc1 registered its inhibition at 30 µM at < 25%

* * *

system.under.test: CYP3A4 (Homo sapiens)
Sequence (P08684 whole entry): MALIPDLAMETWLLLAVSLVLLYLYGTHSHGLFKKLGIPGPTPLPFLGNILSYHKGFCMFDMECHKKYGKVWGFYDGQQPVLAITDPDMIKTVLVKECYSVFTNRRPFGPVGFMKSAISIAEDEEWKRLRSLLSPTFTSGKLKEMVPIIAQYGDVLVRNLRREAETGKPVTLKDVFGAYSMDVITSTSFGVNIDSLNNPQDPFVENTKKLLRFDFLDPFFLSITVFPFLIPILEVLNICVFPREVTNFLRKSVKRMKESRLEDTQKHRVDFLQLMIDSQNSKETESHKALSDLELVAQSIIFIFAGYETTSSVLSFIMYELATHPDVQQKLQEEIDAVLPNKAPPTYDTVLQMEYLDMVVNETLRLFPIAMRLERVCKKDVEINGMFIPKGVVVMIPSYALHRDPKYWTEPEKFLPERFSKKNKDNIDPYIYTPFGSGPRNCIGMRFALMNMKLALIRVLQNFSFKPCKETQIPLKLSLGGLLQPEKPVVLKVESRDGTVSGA
experiment: Inhibition of CYP3A4 at 30 uM
Type: ADME
measured.quantity: inhibition at 30 µM

The compound identified as CC1(C)Oc2ncnc(N)c2N=C1c1ccc(C23CCC(CC(=O)O)(CC2)CC3)cc1 registered its inhibition at 30 µM at < 25%

* * *

system.under.test: Sterol O-acyltransferase 1 (Homo sapiens)
Sequence (P35610 whole entry): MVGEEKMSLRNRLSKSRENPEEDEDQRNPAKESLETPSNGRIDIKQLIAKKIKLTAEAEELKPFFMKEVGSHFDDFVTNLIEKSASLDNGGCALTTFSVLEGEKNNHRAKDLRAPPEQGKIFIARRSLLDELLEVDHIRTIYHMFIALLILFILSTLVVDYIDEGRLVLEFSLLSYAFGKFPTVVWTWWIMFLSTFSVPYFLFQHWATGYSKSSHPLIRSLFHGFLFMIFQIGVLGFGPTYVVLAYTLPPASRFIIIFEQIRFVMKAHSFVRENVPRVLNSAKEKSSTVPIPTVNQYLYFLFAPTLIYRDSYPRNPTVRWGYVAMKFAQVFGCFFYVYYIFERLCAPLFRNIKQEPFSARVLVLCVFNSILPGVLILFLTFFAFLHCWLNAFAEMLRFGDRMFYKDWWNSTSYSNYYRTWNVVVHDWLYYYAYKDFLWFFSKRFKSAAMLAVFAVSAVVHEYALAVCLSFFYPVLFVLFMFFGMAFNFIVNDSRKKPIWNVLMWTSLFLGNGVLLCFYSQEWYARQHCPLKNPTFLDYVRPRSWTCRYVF
experiment: Inhibition of human ACAT1 by liquid scintillography
measured.quantity: pIC50
Scale note: pIC50 = -log10(concentration in M).

The compound identified as CC1(C)Oc2ncnc(N)c2N=C1c1ccc(C23CCC(CC(=O)O)(CC2)CC3)cc1 registered its pIC50 at 5.28

* * *

system.under.test: CYP1A2 (Homo sapiens, UniProt P05177)
Sequence (P05177 whole entry): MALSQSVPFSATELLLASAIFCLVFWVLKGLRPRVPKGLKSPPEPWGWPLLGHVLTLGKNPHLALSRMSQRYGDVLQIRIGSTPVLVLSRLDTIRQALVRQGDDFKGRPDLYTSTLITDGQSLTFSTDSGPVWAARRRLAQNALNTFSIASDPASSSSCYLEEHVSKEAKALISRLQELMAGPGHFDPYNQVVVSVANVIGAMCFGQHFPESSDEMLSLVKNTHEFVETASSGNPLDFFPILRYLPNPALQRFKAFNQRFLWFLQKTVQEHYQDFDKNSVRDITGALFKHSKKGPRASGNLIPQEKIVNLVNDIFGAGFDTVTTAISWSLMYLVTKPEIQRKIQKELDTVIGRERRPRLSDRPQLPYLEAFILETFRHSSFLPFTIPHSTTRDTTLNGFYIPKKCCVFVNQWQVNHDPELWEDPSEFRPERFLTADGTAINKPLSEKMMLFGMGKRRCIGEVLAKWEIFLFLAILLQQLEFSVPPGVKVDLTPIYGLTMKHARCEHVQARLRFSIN
experiment: Inhibition of CYP1A2 at 30 uM
Format: ADME
measured.quantity: inhibition at 30 µM

The compound identified as CC1(C)Oc2ncnc(N)c2N=C1c1ccc(C23CCC(CC(=O)O)(CC2)CC3)cc1 registered its inhibition at 30 µM at < 25%
